// reported pKi for each item listed
- targetEntity: full-length hepatitis C viral protein NS3•4A (Hepatitis C virus genotype 1a)
- Construct: hexa-histidine (N); made in house; host or cells: Sf9 insect cells (baculovirus, pVL1392)
- assayOverview: biochemical
- Parameters: species or system HCV sub-type strain 1a
- conditionNotes: Enzyme Assay 2, HCV NS3 Peptide Cleavage Assay, apparent Ki
pKi: −log10 of the molar value.
reportedEndpoint: pKi

CCC[C@H](NC(=O)[C@@H]1C[C@]2(CC(c3cc(C)c(OCC)c(C)c3)=NO2)CN1C(=O)[C@@H](NC(=O)C1CC1c1ccncc1)C(C)(C)C)C(=O)C(=O)NC1CC1 (some centres unmarked) [Compound 982] ... 6.30 to 7.00
CNC(=O)C(=O)[C@H](CC1CC1)NC(=O)[C@@H]1C[C@]2(CC(c3cccc(Cl)c3)=NO2)CN1C(=O)[C@@H](NC(=O)[C@@H]1C[C@H]1c1ccccn1)C(C)(C)C [Compound 869] ... > 7.00
CNC(=O)C(=O)[C@H](CC1CC1)NC(=O)[C@@H]1C[C@]2(CC(c3cccc(Cl)c3)=NO2)CN1C(=O)[C@@H](NC(=O)C1(c2ccccc2)CC1)C(C)(C)C [Compound 966] ... < 6.30
CCC[C@H](NC(=O)[C@@H]1C[C@]2(CC(c3cc(Cl)c(OCC)cc3OC)=NO2)CN1C(=O)[C@@H](NC(=O)CC1CCCCC1)C(C)(C)C)C(=O)C(=O)NC1CC1 [Compound 818] ... > 7.00
CCOc1c(C)cc(C2=NO[C@]3(C2)C[C@@H](C(=O)N[C@@H](CC2CC2)C(=O)C(=O)NC)N(C(=O)[C@@H](NC(=O)OC2CCCC2)C(C)(C)C)C3)cc1Cl [Compound 817] ... > 7.00
